Answer each item with its documented normalized RNA/DNA level without ligand (log10).
B1: library; a variant is named by its letters at N, in order (parent)
chain: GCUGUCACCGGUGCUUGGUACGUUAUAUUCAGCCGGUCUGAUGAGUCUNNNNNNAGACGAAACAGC

variants of: B1; experiment: normalized RNA/DNA level without ligand (relative to sTRSVctl = 100) (log10 (% of sTRSVctl)); HEK293T overexpressing SLC46A1; higher = less ribozyme self-cleavage, higher mRNA level; details: without (6R,S)-folinic acid; ligand present: no

In the examples that follow, each entry is paired with its recorded normalized RNA/DNA level without ligand (log10).
{"columns": ["Variant name", "Result"],
 "data": [
  ["AAGGAA", 1.94],
  ["AGUGCU", 2.01],
  ["CGGUGC", 2.05]
]}

Dear colleague, could you send me normalized RNA/DNA level without ligand (log10) for each of the items below? Thanks.
1. CCUGAC
2. AGGAGA
3. GUUAGC
4. CCAAUU
5. CAACAU
6. AAUUGG

Reply |
2
1.93
1.92
2.04
1.98
1.93

Give me normalized RNA/DNA level without ligand (log10) for each of these variants, listed below.
1. AUUUAA
2. CCCCGC
3. UAUAUA
4. UAAAAA

Reply |
1.95
2.09
1.94
1.92
